Test system: 931267-113-T-J1-PDC multicell spheroid viability
RUN DESCRIPTION: Anticancer human tumor 931267-113-T-J1-PDC patient-derived colon adenocarcinoma cell line growth inhibition [PI3K]
CONDITION DETAILS: second compound 0.316 µM; first compound 0.1 µM; hits give low values
Labelling: viability, T/C reported below 80% becomes 1; at or above becomes -1.

>  <COMPOUND>
Cn1nccc1Nc1nccc(-c2ccn(C(CO)c3ccc(Cl)c(F)c3)c(=O)c2)n1 (stereo unspecified) + CC(Nc1ncnc2nc[nH]c12)c1cc2cccc(Cl)c2c(=O)n1-c1ccccc1

>  <TEST TARGET>
931267-113-T-J1-PDC multicell spheroid viability

>  <GROUP LABEL>
-1

$$$$
>  <COMPOUND>
C#Cc1c(F)ccc2cc(O)cc(-c3ncc4c(N5CC6CCC(C5)N6)nc(OCC56CCCN5CC(F)C6)nc4c3F)c12 (stereo unspecified) + CC(Nc1ncnc2nc[nH]c12)c1cc2cccc(Cl)c2c(=O)n1-c1ccccc1

>  <TEST TARGET>
931267-113-T-J1-PDC multicell spheroid viability

>  <GROUP LABEL>
1

$$$$
>  <COMPOUND>
C=CC(=O)N1CCN(c2nc(=O)n(-c3c(C)ccnc3C(C)C)c3nc(-c4c(O)cccc4F)c(F)cc23)C(C)C1 (stereo unspecified) + COc1c(OCCCN2CCOCC2)ccc2c3n(c(=NC(=O)c4cnc(N)nc4)nc12)CCN3

>  <TEST TARGET>
931267-113-T-J1-PDC multicell spheroid viability

>  <GROUP LABEL>
1

$$$$
>  <COMPOUND>
Cn1nccc1Nc1nccc(-c2ccn(C(CO)c3ccc(Cl)c(F)c3)c(=O)c2)n1 (stereo unspecified) + CC(Nc1ccc2c(c1)OCCn1cc(N3C(=O)OCC3C(F)F)nc1-2)C(N)=O

>  <TEST TARGET>
931267-113-T-J1-PDC multicell spheroid viability

>  <GROUP LABEL>
1

$$$$
>  <COMPOUND>
CCN1CCN(Cc2ccc(Nc3ncc(F)c(-c4cc(F)c5nc(C)n(C(C)C)c5c4)n3)nc2)CC1 + CC(Nc1ccc2c(c1)OCCn1cc(N3C(=O)OCC3C(F)F)nc1-2)C(N)=O

>  <TEST TARGET>
931267-113-T-J1-PDC multicell spheroid viability

>  <GROUP LABEL>
1

$$$$
>  <COMPOUND>
C[C@@H](NC(=O)c1ncnc(N)c1Cl)c1ncc(C(=O)Nc2cc(C(F)(F)F)c(Cl)cn2)s1 + Cc1nc(NC(=O)N2CCCC2C(N)=O)sc1-c1ccnc(C(C)(C)C(F)(F)F)c1

>  <TEST TARGET>
931267-113-T-J1-PDC multicell spheroid viability

>  <GROUP LABEL>
-1

$$$$
>  <COMPOUND>
CCN1CCN(Cc2ccc(Nc3ncc(F)c(-c4cc(F)c5nc(C)n(C(C)C)c5c4)n3)nc2)CC1 + Cc1nc(NC(=O)N2CCCC2C(N)=O)sc1-c1ccnc(C(C)(C)C(F)(F)F)c1

>  <TEST TARGET>
931267-113-T-J1-PDC multicell spheroid viability

>  <GROUP LABEL>
-1

$$$$
>  <COMPOUND>
Cn1nccc1Nc1nccc(-c2ccn(C(CO)c3ccc(Cl)c(F)c3)c(=O)c2)n1 (stereo unspecified) + COc1c(OCCCN2CCOCC2)ccc2c3n(c(=NC(=O)c4cnc(N)nc4)nc12)CCN3

>  <TEST TARGET>
931267-113-T-J1-PDC multicell spheroid viability

>  <GROUP LABEL>
1

$$$$
>  <COMPOUND>
CC(Cn1ccc(-c2ccc(C#N)c(Cl)c2)n1)NC(=O)c1cc(C(C)O)[nH]n1 (stereo unspecified) + CC(Nc1ccc2c(c1)OCCn1cc(N3C(=O)OCC3C(F)F)nc1-2)C(N)=O

>  <TEST TARGET>
931267-113-T-J1-PDC multicell spheroid viability

>  <GROUP LABEL>
-1

$$$$
>  <COMPOUND>
Cn1ncnc1[C@H]1c2n[nH]c(=O)c3cc(F)cc(c23)N[C@@H]1c1ccc(F)cc1 + COc1c(OCCCN2CCOCC2)ccc2c3n(c(=NC(=O)c4cnc(N)nc4)nc12)CCN3

>  <TEST TARGET>
931267-113-T-J1-PDC multicell spheroid viability

>  <GROUP LABEL>
1

$$$$

====

System: 931267-113-T-J1-PDC multicell spheroid viability
RUN DESCRIPTION: Anticancer human tumor 931267-113-T-J1-PDC cell line growth inhibition [PI3K];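 note: viability read 7 days after compound addition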
CONDITION DETAILS: second compound 0.316 µM; first compound 0.1 µM; hits give low values
Entries are grouped by viability, T/C into these classes: group A = under 50%, group B = from 50% up to 90%, group C = 90% and over

>  <COMPOUND>
CC(C)n1nc(-c2ccc3oc(N)nc3c2)c2c(N)ncnc21 + CC(Nc1ccc2c(c1)OCCn1cc(N3C(=O)OCC3C(F)F)nc1-2)C(N)=O

>  <TEST TARGET>
931267-113-T-J1-PDC multicell spheroid viability

>  <GROUP LABEL>
group A

$$$$
>  <COMPOUND>
CC1(C)CCC(Nc2ncc(C(F)(F)F)c(-c3c[nH]c4c(P(C)(C)=O)c(C#N)ccc34)n2)CN1 (stereo unspecified) + CC(Nc1ccc2c(c1)OCCn1cc(N3C(=O)OCC3C(F)F)nc1-2)C(N)=O

>  <TEST TARGET>
931267-113-T-J1-PDC multicell spheroid viability

>  <GROUP LABEL>
group B

$$$$
>  <COMPOUND>
C=CC(=O)N1CCN(c2nc(=O)n(-c3c(C)ccnc3C(C)C)c3nc(-c4c(O)cccc4F)c(F)cc23)C(C)C1 (stereo unspecified) + Cc1nc(NC(=O)N2CCCC2C(N)=O)sc1-c1ccnc(C(C)(C)C(F)(F)F)c1

>  <TEST TARGET>
931267-113-T-J1-PDC multicell spheroid viability

>  <GROUP LABEL>
group B

$$$$
>  <COMPOUND>
CNC(=O)c1ccc(N2C(=S)N(c3ccc(C#N)c(C(F)(F)F)c3)C(=O)C2(C)C)cc1F + COc1c(OCCCN2CCOCC2)ccc2c3n(c(=NC(=O)c4cnc(N)nc4)nc12)CCN3

>  <TEST TARGET>
931267-113-T-J1-PDC multicell spheroid viability

>  <GROUP LABEL>
group B

$$$$
>  <COMPOUND>
CCN1CCN(Cc2ccc(Nc3ncc(F)c(-c4cc(F)c5nc(C)n(C(C)C)c5c4)n3)nc2)CC1 + COc1c(OCCCN2CCOCC2)ccc2c3n(c(=NC(=O)c4cnc(N)nc4)nc12)CCN3

>  <TEST TARGET>
931267-113-T-J1-PDC multicell spheroid viability

>  <GROUP LABEL>
group A

$$$$
>  <COMPOUND>
CC(Cn1ccc(-c2ccc(C#N)c(Cl)c2)n1)NC(=O)c1cc(C(C)O)[nH]n1 (stereo unspecified) + CC(Nc1ncnc2nc[nH]c12)c1cc2cccc(Cl)c2c(=O)n1-c1ccccc1

>  <TEST TARGET>
931267-113-T-J1-PDC multicell spheroid viability

>  <GROUP LABEL>
group C

$$$$
>  <COMPOUND>
C=CC(=O)N1CCN(c2nc(=O)n(-c3c(C)ccnc3C(C)C)c3nc(-c4c(O)cccc4F)c(F)cc23)C(C)C1 (stereo unspecified) + CC(Nc1ncnc2nc[nH]c12)c1cc2cccc(Cl)c2c(=O)n1-c1ccccc1

>  <TEST TARGET>
931267-113-T-J1-PDC multicell spheroid viability

>  <GROUP LABEL>
group C

$$$$
>  <COMPOUND>
C#Cc1c(F)ccc2cc(O)cc(-c3ncc4c(N5CC6CCC(C5)N6)nc(OCC56CCCN5CC(F)C6)nc4c3F)c12 (stereo unspecified) + Cc1nc(NC(=O)N2CCCC2C(N)=O)sc1-c1ccnc(C(C)(C)C(F)(F)F)c1

>  <TEST TARGET>
931267-113-T-J1-PDC multicell spheroid viability

>  <GROUP LABEL>
group B

$$$$

====

Test system: 931267-113-T-J1-PDC multicell spheroid viability
RUN DESCRIPTION: Anticancer human tumor 931267-113-T-J1-PDC cell line growth inhibition [PI3K];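 note: viability read 7 days after compound addition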
CONDITION DETAILS: second compound 0.1 µM; first compound 1 µM; hits give low values

>  <MOLECULE>
CCCS(=O)(=O)Nc1ccc(F)c(C(=O)c2c[nH]c3ncc(-c4ccc(Cl)cc4)cc23)c1F + CC(Nc1ncnc2nc[nH]c12)c1cc2cccc(Cl)c2c(=O)n1-c1ccccc1

>  <viability, T/C>
107%

$$$$
>  <MOLECULE>
Cn1ncc(Cl)c1-c1cc(C(=O)NC(CN)Cc2cccc(F)c2)sc1Cl (stereo unspecified) + COc1c(OCCCN2CCOCC2)ccc2c3n(c(=NC(=O)c4cnc(N)nc4)nc12)CCN3

>  <viability, T/C>
60%

$$$$
>  <MOLECULE>
CNC(=O)c1ccc(N2C(=S)N(c3ccc(C#N)c(C(F)(F)F)c3)C(=O)C2(C)C)cc1F + CC(Nc1ccc2c(c1)OCCn1cc(N3C(=O)OCC3C(F)F)nc1-2)C(N)=O

>  <viability, T/C>
81.9%

$$$$
>  <MOLECULE>
CC(C)NCC(C(=O)N1CCN(c2ncnc3c2C(C)CC3O)CC1)c1ccc(Cl)cc1 (stereo unspecified) + Cc1nc(NC(=O)N2CCCC2C(N)=O)sc1-c1ccnc(C(C)(C)C(F)(F)F)c1

>  <viability, T/C>
86.7%

$$$$
>  <MOLECULE>
CCCS(=O)(=O)Nc1ccc(F)c(C(=O)c2c[nH]c3ncc(-c4ccc(Cl)cc4)cc23)c1F + CC(Nc1ccc2c(c1)OCCn1cc(N3C(=O)OCC3C(F)F)nc1-2)C(N)=O

>  <viability, T/C>
107%

$$$$
>  <MOLECULE>
C=CC(=O)N1CCN(c2nc(=O)n(-c3c(C)ccnc3C(C)C)c3nc(-c4c(O)cccc4F)c(F)cc23)C(C)C1 (stereo unspecified) + CC(Nc1ncnc2nc[nH]c12)c1cc2cccc(Cl)c2c(=O)n1-c1ccccc1

>  <viability, T/C>
111%

$$$$
>  <MOLECULE>
C=CC(=O)N1CCN(c2nc(=O)n(-c3c(C)ccnc3C(C)C)c3nc(-c4c(O)cccc4F)c(F)cc23)C(C)C1 (stereo unspecified) + Cc1nc(NC(=O)N2CCCC2C(N)=O)sc1-c1ccnc(C(C)(C)C(F)(F)F)c1

>  <viability, T/C>
100%

$$$$
>  <MOLECULE>
CC(C)NCC(C(=O)N1CCN(c2ncnc3c2C(C)CC3O)CC1)c1ccc(Cl)cc1 (stereo unspecified) + CC(Nc1ccc2c(c1)OCCn1cc(N3C(=O)OCC3C(F)F)nc1-2)C(N)=O

>  <viability, T/C>
96.2%

$$$$
>  <MOLECULE>
CCN1CCN(Cc2ccc(Nc3ncc(F)c(-c4cc(F)c5nc(C)n(C(C)C)c5c4)n3)nc2)CC1 + CC(Nc1ncnc2nc[nH]c12)c1cc2cccc(Cl)c2c(=O)n1-c1ccccc1

>  <viability, T/C>
84.2%

$$$$
>  <MOLECULE>
CNC(=O)c1ccc(N2C(=S)N(c3ccc(C#N)c(C(F)(F)F)c3)C(=O)C2(C)C)cc1F + Cc1nc(NC(=O)N2CCCC2C(N)=O)sc1-c1ccnc(C(C)(C)C(F)(F)F)c1

>  <viability, T/C>
105%

$$$$
>  <MOLECULE>
CC1(C)CCC(Nc2ncc(C(F)(F)F)c(-c3c[nH]c4c(P(C)(C)=O)c(C#N)ccc34)n2)CN1 (stereo unspecified) + Cc1nc(NC(=O)N2CCCC2C(N)=O)sc1-c1ccnc(C(C)(C)C(F)(F)F)c1

>  <viability, T/C>
70.5%

$$$$

Data credit: PubChem BioAssay AID1963970
